Target: AQ STING (G230A-R293Q) (Homo sapiens, UniProt Q86WV6, G230A/H232R/R293Q)
Construct: encoded truncated human WT STING or AQ STING (amino acid residues 140-343) with N-terminal 8×His and SUMO tag; 8xHis-SUMO (N, cleaved yes); made in house; host or cells: E. coli Rosetta-gami B (DE3)
Sequence (Q86WV6 140-343 G230A/H232R/R293Q): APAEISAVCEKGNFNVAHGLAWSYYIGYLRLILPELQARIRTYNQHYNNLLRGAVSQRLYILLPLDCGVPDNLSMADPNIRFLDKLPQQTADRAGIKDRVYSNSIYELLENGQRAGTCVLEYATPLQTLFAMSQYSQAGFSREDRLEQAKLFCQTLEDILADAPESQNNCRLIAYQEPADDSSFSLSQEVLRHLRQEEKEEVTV
Test: Differential Scanning Fluorimetry (DSF) with AQ STING
Type: binding
Settings: thermal shift vs STING apoprotein; 150 μM CDN; 0.1 mg/ml protein; SYPRO Orange
Binary label based on ΔTm at 150 µM with cut-off 9 °C: below gives 1.0, not below gives 0.0.

Illustrative cases are given below, each with its answer.
{"columns": ["molecule", "category"],
 "data": [
  ["CSc1nc(N)nc2c1ncn2[C@@H]1O[C@@H]2COP(=O)(O)OC3C(O)[C@H](n4cnc5c(N)ncnc54)O[C@@H]3OCP(=O)(O)OC2C1O (stereo partly shown) [Compound 45]", 1.0],
  ["Nc1nc2c(ncn2[C@@H]2O[C@@H]3OCP(=O)(O)OC4C(O)[C@H](n5cnc6c(N)ncnc65)O[C@@H]4OCP(=O)(O)OC3C2O)c(=O)[nH]1 (stereo partly shown) [Compound 38]", 0.0],
  ["Nc1ncnc2c1ncn2[C@@H]1O[C@@H]2COP(=O)(O)OC3C(O)[C@H](n4cnc5c(N)ncnc54)O[C@@H]3OCP(=O)(O)OC2C1N (stereo partly shown) [Compound 47]", 1.0],
  ["CNc1ncnc2c1ncn2[C@@H]1O[C@@H]2COP(=O)(O)OC3C(O)[C@H](n4cnc5c(=O)[nH]c(N)nc54)O[C@@H]3OCP(=O)(O)OC2C1O (stereo partly shown) [Compound 39]", 1.0],
  ["Nc1nc2c(ncn2[C@@H]2O[C@@H]3COP(=O)(O)OC4C(O)[C@H](n5cnc6c(N)ncnc65)O[C@@H]4OCP(=O)(O)OC3C2O)c(=O)[nH]1 (stereo partly shown) [Compound 44]", 0.0]
]}

Turning now to a further molecule:
**Q:** Is the reported ΔTm at 150 µM for Nc1nc2c(ncn2[C@@H]2O[C@@H]3OCP(=O)(O)OC4C(O)[C@H](n5cnc6c(=O)[nH]c(N)nc65)O[C@@H]4OCP(=O)(O)OC3C2O)c(=O)[nH]1 (stereo partly shown) [Compound 36] strictly below 9 °C?
**A:** 1.0

----------
Biological target: AQ STING (G230A-R293Q) (Homo sapiens, UniProt Q86WV6, G230A/H232R/R293Q)
Construct: encoded truncated human WT STING or AQ STING (amino acid residues 140-343) with N-terminal 8×His and SUMO tag; 8xHis-SUMO (N, cleaved yes); made in house; host or cells: E. coli Rosetta-gami B (DE3)
Test: Differential Scanning Fluorimetry (DSF) with AQ STING
Format: binding
Settings: thermal shift vs STING apoprotein; 150 μM CDN; 0.1 mg/ml protein; SYPRO Orange
# Lookup of reported ΔTm at 150 µM keyed by entry
Report the figure in °C without appending any unit label.

{"columns": ["molecule", "value_unit", "ΔTm at 150 µM"],
 "data": [
  ["COc1nc(N)nc2c1ncn2[C@@H]1O[C@@H]2COP(=O)(O)OC3C(O)[C@H](n4cnc5c(N)ncnc54)O[C@@H]3OCP(=O)(O)OC2C1O (stereo partly drawn)", "°C", 1.6],
  ["Nc1ncnc2c1ncn2[C@@H]1O[C@@H]2OCP(=O)(O)OC3C(O)[C@H](n4cnc5c(N)ncnc54)O[C@@H]3COP(=O)(S)OC2C1O (stereo partly drawn)", "°C", 4.2]
]}

Proceed to the following item.
**Q:** Can you look up the measured ΔTm at 150 µM of Nc1nc(Cl)c2ncn([C@@H]3O[C@@H]4COP(=O)(O)OC5C(O)[C@H](n6cnc7c(N)ncnc76)O[C@@H]5OCP(=O)(O)OC4C3O)c2n1 (stereo partly drawn) for me?
**A:** 2.1

----------
Molecular target: WT STING (Homo sapiens, UniProt Q86WV6, H232R)
Construct: encoded truncated human WT STING or AQ STING (amino acid residues 140-343) with N-terminal 8×His and SUMO tag; 8xHis-SUMO (N, cleaved yes); made in house; host or cells: E. coli Rosetta-gami B (DE3)
Sequence (Q86WV6 140-343 H232R): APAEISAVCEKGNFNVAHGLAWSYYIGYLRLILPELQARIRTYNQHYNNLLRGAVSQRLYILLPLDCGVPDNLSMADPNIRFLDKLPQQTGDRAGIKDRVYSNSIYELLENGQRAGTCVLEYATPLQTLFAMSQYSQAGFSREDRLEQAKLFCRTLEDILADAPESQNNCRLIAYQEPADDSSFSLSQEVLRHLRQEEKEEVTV
Experiment: Differential Scanning Fluorimetry (DSF) with WT STING
Format: binding
Settings: thermal shift vs STING apoprotein; 150 μM CDN; 0.1 mg/ml protein; SYPRO Orange
value_type: ΔTm at 150 µM (°C)
Report the figure in °C without appending any unit label.

The following compounds have reported results that may help.
{"columns": ["compound", "measurement_target", "value_unit", "reported_result"],
 "data": [
  ["Nc1nc2c(ncn2[C@@H]2O[C@@H]3OCP(=O)(O)OC4C(O)[C@H](n5cnc6c(N)ncnc65)O[C@@H]4OCP(=O)(O)OC3C2O)c(=O)[nH]1 (some centres unmarked) [Compound 38]", "WT STING (Homo sapiens, UniProt Q86WV6, H232R)", "°C", 1.9],
  ["Nc1nc2c(nnn2[C@@H]2O[C@@H]3OCP(=O)(O)OC4C(O)[C@H](n5cnc6c(N)ncnc65)O[C@@H]4COP(=O)(O)OC3C2O)c(=O)[nH]1 (some centres unmarked) [Compound 54]", "WT STING (Homo sapiens, UniProt Q86WV6, H232R)", "°C", 3.9],
  ["Nc1ncnc2c1ncn2[C@@H]1O[C@@H]2OCP(=O)(O)OC3C(O)[C@H](n4cnc5c(N)ncnc54)O[C@@H]3COP(=O)(O)OC2C1O (single isomer, unassigned) [Compound 32]", "WT STING (Homo sapiens, UniProt Q86WV6, H232R)", "°C", 0.8],
  ["Nc1nc2c(ncn2[C@@H]2O[C@@H]3OCP(=O)(O)OC4C(O)[C@H](n5cnc6c(=O)[nH]c(N)nc65)O[C@@H]4OCP(=O)(O)OC3C2O)c(=O)[nH]1 (some centres unmarked) [Compound 36]", "WT STING (Homo sapiens, UniProt Q86WV6, H232R)", "°C", 0.6]
]}

Proceed to the following item.
**Q:** Can you look up the measured ΔTm at 150 µM of Nc1nc2c(ccn2[C@@H]2O[C@@H]3COP(=O)(O)OC4C(O)[C@H](n5cnc6c(N)ncnc65)O[C@@H]4OCP(=O)(O)OC3C2O)c(=O)[nH]1 (some centres unmarked) [Compound 43] for me?
**A:** 0.6

----------
Biological target: human wild type STING (WT STING) (Homo sapiens, UniProt Q86WV6, H232R)
Construct: host or cells: 293T (ATCC CRL-3216), stably transfected, with a 4xISRE firefly luciferase reporter
Sequence (Q86WV6 whole entry H232R): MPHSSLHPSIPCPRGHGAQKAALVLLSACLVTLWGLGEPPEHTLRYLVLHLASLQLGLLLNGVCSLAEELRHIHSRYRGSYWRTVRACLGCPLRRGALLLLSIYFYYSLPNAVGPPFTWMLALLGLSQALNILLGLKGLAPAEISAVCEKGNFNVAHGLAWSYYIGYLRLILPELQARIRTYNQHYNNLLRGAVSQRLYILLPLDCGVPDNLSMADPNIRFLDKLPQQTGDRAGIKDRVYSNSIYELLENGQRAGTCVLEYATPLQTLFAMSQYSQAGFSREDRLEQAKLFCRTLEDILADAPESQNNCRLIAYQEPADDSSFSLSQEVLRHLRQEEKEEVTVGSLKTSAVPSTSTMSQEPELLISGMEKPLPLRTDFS
Experiment: Digitonin assay using 293T wtSTING-FL reporter cells
Format: cell-based
Settings: 293T wtSTING-FL cells; ISRE firefly luciferase reporter; 30 min in Digitonin buffer, then 5 hours; 8-point dose-response curve
Label scheme for EC50: low: < 0.6 µM; middle: ≥ 0.6 µM and < 8 µM; high: ≥ 8 µM

{"columns": ["compound", "category"],
 "data": [
  ["Nc1ncnc2c1ncn2[C@@H]1O[C@@H]2OCP(=O)(O)OC3C(O)[C@H](n4cnc5c(N)ncnc54)O[C@@H]3COP(=O)(O)OC2C1O (single isomer, unassigned) [Compound 32]", "middle"],
  ["Nc1nc(Cl)c2ncn([C@@H]3O[C@@H]4COP(=O)(O)OC5C(O)[C@H](n6cnc7c(N)ncnc76)O[C@@H]5OCP(=O)(O)OC4C3O)c2n1 (some centres unmarked)", "middle"],
  ["Nc1nc2c(ncn2[C@@H]2O[C@@H]3COCP(=O)(O)OC4C(F)[C@H](n5cnc6c(N)ncnc65)O[C@@H]4COP(=O)(O)OC3C2O)c(=O)[nH]1 (some centres unmarked)", "middle"],
  ["Nc1ncnc2c1ncn2[C@@H]1O[C@@H]2COCP(=O)(O)OC3C(F)[C@H](n4cnc5c(N)ncnc54)O[C@@H]3COP(=O)(O)OC2C1O (some centres unmarked)", "high"],
  ["Nc1ncnc2c1ncn2[C@@H]1O[C@@H]2OCP(=O)(O)OC3C(O)[C@H](n4cnc5c(N)ncnc54)O[C@@H]3COP(=O)(O)OC2C1O (some centres unmarked) [Compound 51]", "low"]
]}

**Q:** Hi there! Could you help me figure out the category for Nc1nc2c(ncn2[C@@H]2O[C@@H]3OCP(=O)(O)OC4C(O)[C@H](n5cnc6c(N)ncnc65)O[C@@H]4OCP(=O)(O)OC3C2O)c(=O)[nH]1 (some centres unmarked) please?
**A:** low

**Q:** Hi there! Could you help me figure out the category for COc1nc(N)nc2c1ncn2[C@@H]1O[C@@H]2COP(=O)(O)OC3C(O)[C@H](n4cnc5c(N)ncnc54)O[C@@H]3OCP(=O)(O)OC2C1O (some centres unmarked) please?
**A:** high

**Q:** Hi there! Could you help me figure out the category for Nc1nc2c(nnn2[C@@H]2O[C@@H]3OCP(=O)(O)OC4C(O)[C@H](n5cnc6c(N)ncnc65)O[C@@H]4COP(=O)(O)OC3C2O)c(=O)[nH]1 (some centres unmarked) please?
**A:** low

**Q:** Hi there! Could you help me figure out the category for CSc1nc(N)nc2c1ncn2[C@@H]1O[C@@H]2COP(=O)(O)OC3C(O)[C@H](n4cnc5c(N)ncnc54)O[C@@H]3OCP(=O)(O)OC2C1O (some centres unmarked) please?
**A:** high

**Q:** Hi there! Could you help me figure out the category for Nc1nc2c(ncn2[C@@H]2O[C@@H]3COP(=O)(O)O[C@@H]4[C@H](O)[C@@H](COP(=O)(O)O[C@@H]2[C@@H]3O)O[C@H]4n2cnc3c(N)ncnc32)c(=O)[nH]1 [2′2′-cGAMP, reference compound] please?
**A:** low

**Q:** Hi there! Could you help me figure out the category for Nc1ncnc2c1ccn2[C@@H]1O[C@@H]2COP(=O)(O)OC3C(O)[C@H](n4cnc5c(N)ncnc54)O[C@@H]3OCP(=O)(O)OC2C1O (some centres unmarked) please?
**A:** high

**Q:** Hi there! Could you help me figure out the category for CNc1ncnc2c1ncn2[C@@H]1O[C@@H]2COP(=O)(O)OC3C(O)[C@H](n4cnc5c(N)ncnc54)O[C@@H]3OCP(=O)(O)OC2C1O (some centres unmarked) please?
**A:** middle

**Q:** Hi there! Could you help me figure out the category for Nc1nc2c(ncn2[C@@H]2O[C@@H]3COP(=O)(O)O[C@H]4[C@@H](O)[C@H](n5cnc6c(=O)[nH]c(N)nc65)O[C@@H]4COP(=O)(O)O[C@H]3[C@H]2O)c(=O)[nH]1 [3′3′c-di-GMP, 3′3′-c-di-GMP, reference compound] please?
**A:** middle
